- TARGET DESC: SMARCA2 (Homo sapiens)
- Sequence (P51531 whole entry): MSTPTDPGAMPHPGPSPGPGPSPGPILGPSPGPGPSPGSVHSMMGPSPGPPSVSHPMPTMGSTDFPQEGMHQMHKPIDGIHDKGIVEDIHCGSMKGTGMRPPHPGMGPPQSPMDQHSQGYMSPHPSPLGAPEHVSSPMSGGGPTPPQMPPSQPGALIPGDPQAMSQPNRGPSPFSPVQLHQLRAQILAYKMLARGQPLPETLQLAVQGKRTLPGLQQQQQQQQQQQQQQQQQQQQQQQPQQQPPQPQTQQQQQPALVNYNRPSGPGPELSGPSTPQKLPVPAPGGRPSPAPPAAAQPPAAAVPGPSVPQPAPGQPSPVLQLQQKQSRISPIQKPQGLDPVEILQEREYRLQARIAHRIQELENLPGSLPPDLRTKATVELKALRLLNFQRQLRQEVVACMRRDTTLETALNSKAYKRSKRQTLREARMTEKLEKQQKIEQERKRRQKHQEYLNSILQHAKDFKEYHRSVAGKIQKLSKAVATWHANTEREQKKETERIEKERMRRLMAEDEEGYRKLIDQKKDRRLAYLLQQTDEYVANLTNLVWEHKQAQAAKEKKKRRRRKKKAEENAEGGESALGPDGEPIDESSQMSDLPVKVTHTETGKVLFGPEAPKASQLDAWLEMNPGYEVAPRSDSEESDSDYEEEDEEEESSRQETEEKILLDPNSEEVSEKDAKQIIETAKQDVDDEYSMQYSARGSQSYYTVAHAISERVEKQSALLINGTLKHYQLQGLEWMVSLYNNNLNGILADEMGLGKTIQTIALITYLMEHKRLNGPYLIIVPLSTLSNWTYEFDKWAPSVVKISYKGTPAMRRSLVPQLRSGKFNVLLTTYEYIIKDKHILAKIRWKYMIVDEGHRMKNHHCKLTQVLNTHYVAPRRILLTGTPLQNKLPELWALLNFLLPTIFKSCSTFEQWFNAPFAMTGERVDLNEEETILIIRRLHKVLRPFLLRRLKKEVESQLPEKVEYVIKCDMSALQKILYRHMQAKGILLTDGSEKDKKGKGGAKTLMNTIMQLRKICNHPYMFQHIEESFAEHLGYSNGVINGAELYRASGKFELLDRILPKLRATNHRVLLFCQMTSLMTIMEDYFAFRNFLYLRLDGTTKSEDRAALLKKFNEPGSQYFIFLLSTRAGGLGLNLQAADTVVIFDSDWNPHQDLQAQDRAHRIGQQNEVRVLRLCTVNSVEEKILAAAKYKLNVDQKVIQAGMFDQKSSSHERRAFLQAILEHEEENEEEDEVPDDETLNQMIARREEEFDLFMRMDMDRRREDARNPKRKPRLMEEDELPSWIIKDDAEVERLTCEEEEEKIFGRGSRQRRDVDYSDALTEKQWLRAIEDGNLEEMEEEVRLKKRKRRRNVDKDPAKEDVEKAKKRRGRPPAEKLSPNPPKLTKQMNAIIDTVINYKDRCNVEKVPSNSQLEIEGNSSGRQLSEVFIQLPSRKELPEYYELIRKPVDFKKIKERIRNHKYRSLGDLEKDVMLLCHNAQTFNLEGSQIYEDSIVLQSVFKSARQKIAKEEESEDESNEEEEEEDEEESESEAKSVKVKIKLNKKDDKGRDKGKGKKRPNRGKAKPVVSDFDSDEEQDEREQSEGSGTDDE
- ASSAY DETAILS: SMARCA2 Western blot degradation in MV4-11 cells
- Assay type: cell-based
- Parameters: SMARCA2/SMARCA4 protein degradation selectivity in MV4-11 cells; endogenous in cells; host or cells: MV4-11
- MEASUREMENT PARAMETERS: MV4-11 cells, 24 h; read-out: SMARCA2 MSD MV411 degradation 24 h: Mean external-Abs DC50
Known DC50 of a selection of molecules
MEASURE: DC50

{"MOLECULE": "C#Cc1ccc(CNC(=O)[C@@H]2C[C@@H](O)CN2C(=O)[C@@H](NC(=O)CCCCCN2CCC(N3CC4(CC(N5CCN6c7cc(-c8ccccc8O)nnc7NC[C@H]6C5)C4)C3)CC2)C(C)(C)C)cc1 [I-251]", "OBSERVED": "10 to 100 nM"}
{"MOLECULE": "C#Cc1ccc(CNC(=O)[C@@H]2C[C@@H](O)CN2C(=O)[C@@H](NC(=O)N2CC3(CC(N4CCC(c5cnc(N6CCc7[nH]c8nnc(-c9ccccc9O)cc8c7[C@H]6C)nc5)CC4)C3)C2)C(C)(C)CCOCC(=O)O)cc1 (single isomer, unassigned) [I-262]", "OBSERVED": "10 to 100 nM"}
{"MOLECULE": "C#Cc1ccc(CNC(=O)[C@@H]2C[C@@H](O)CN2C(=O)[C@@H](NC(=O)N2CCN(C[C@H]3CC[C@H](N4CCC(N5CCc6[nH]c7nnc(-c8ccccc8O)cc7c6[C@H]5C)CC4)CC3)CC2)C(C)(C)C)cc1 [I-194]", "OBSERVED": "> 100 nM"}
{"MOLECULE": "C#Cc1ccc(CNC(=O)[C@@H]2C[C@@H](O)CN2C(=O)[C@@H](NC(=O)N2CC3(CC(N4C[C@H]5CN(c6cnc(N7CCc8[nH]c9nnc(-c%10ccccc%10O)cc9c8[C@@H]7C)nc6)C[C@H]5C4)C3)C2)C(C)(C)C)cc1 [I-172]", "OBSERVED": "10 to 100 nM"}
